assay-info: Phage binding to Fluorescein carrier beads, plaque assay of bound phage
assay-context: phage clone; Fluorescein carrier beads
pKd: −log10 of the molar value.
The sequences listed here are annotated with their pKd.
readout: pKd

{"columns": ["ordered-residues", "assay-value"],
 "data": [
  ["YPNEFDWWDYYY [FluS303]", 8.57],
  ["YPNDFEWWEYYF [OG402]", 7.76]
]}

###

assay-info: Binding affinity of phage clones carrying SKVILFE-flanked fluorettes
assay-context: phage clone, SKVILFE-flanked fluorette

{"columns": ["ordered-residues", "Kd"],
 "data": [
  ["EPMARPWERKQDR [TRP527]", "> 5 nM"],
  ["GNQKCLQHNRCST [TRP518]", "> 5 nM"],
  ["GTLSATRPYGRQW [TRP541]", "> 5 nM"],
  ["WSKMGHTVT [TRP505]", "> 5 nM"],
  ["RTIWEPKEASNHT [TRP501]", "0.08 nM"],
  ["RWTWEPISE [TRP512]", "0.025 nM"],
  ["SQTWSFPEH [TRP526]", "> 5 nM"]
]}

###

assay-info: Phage binding to Oregon Green 514 carrier beads, plaque assay of bound phage
assay-context: phage clone; Oregon Green 514 carrier beads
Method: These mutations may be important for increasing the overall affinity of the peptide fluorette-fluorophore interaction. We tested one of each of the phage from the secondary screens for increases in avidity (Table 3). […] Beads suspensions were centrifuged, the supernatants (unbound phage) were titrated and dissociation constants were measured via a standard linear Scatchard plot. […]
pKd: −log10 of the molar value.
The sequences listed here are annotated with their pKd.

{"columns": ["ordered-residues", "pKd"],
 "data": [
  ["HGWDYYWDWTAW [OG403]", 8.19],
  ["HEWEYYWDWTAW [OGS316]", 8.62]
]}

###

assay-info: Peptide-Texas Red binding in solution, excitation and emission spectra
assay-context: calculated roughly from peak shifts, peptide 1.3-20 μM, Texas Red 50 nM; read-out: affinity of the peptide for the fluorophore

{"columns": ["ordered-residues", "Kd"],
 "data": [
  ["KPVOYWTOMFYTGGGSAETVGGGHHHHHH (KPVQYWTQMFYTGGGSAETVGGGHHHHHH; fluorette) [PepTRS311]", "100 to 500 nM"]
]}

From: patent US6747135B1
